Hello, the source for this data is PubChem BioAssay (NCI), in case you need it.

Tested on: A549/ATCC NSCLC
Assay: NCI-60 one-dose screen, 48 h (100 = growth as untreated, 0 = no growth, -100 = all killed)
Details: 10 µM
Compounds without any hit were thinned out: in the full panel of roughly 83,000, 20% have a hit. Calls of active or inactive are those of the source. How the source made its calls: active means growth percent below 10; inactive means the rest.
Documented growth across a set of compounds
measured_parameter: growth

{"compound": "O=C1c2ccccc2C(=O)c2c1ccc(C(Br)Br)c2Cl", "assay_system": "A549/ATCC NSCLC", "observed_value": "88.3% (inactive)"}
{"compound": "OCC1OC(n2ccc3c(NO)ncnc32)C(O)C1O (stereo not drawn)", "assay_system": "A549/ATCC NSCLC", "observed_value": "-10.9% (active)"}
{"compound": "CC(C)[N+]1(C)C2CC[C@@H]1CC(OC(=O)C(CO)c1ccccc1)C2 (stereo partly drawn)", "assay_system": "A549/ATCC NSCLC", "observed_value": "92.3% (inactive)"}
{"compound": "COc1ccc(C(=O)N2C=Cc3ccccc3C2C#N)cc1 (stereo not drawn)", "assay_system": "A549/ATCC NSCLC", "observed_value": "101% (inactive)"}
{"compound": "COc1ccc(/C=C/C(=O)C(=O)/C=C/c2ccc(OC)c(OC)c2)cc1OC", "assay_system": "A549/ATCC NSCLC", "observed_value": "69.9% (inactive)"}
{"compound": "COc1ccc(Nc2cnc3cc(NS(=O)(=O)c4ccc(C)cc4)ccc3n2)cc1", "assay_system": "A549/ATCC NSCLC", "observed_value": "66.2% (inactive)"}
{"compound": "Clc1ccc(/C=C2\\CCCC3C2=Nc2ccccc2NC3c2ccc(Cl)cc2)cc1 (stereo not drawn)", "assay_system": "A549/ATCC NSCLC", "observed_value": "78.5% (inactive)"}
{"compound": "CC1=CC2C(C(O)CC3(C)C2CC(C)C32OCOC23COCO3)C2(C)C/C(=C/O)C(=O)C=C12 (stereo not drawn)", "assay_system": "A549/ATCC NSCLC", "observed_value": "41.8% (inactive)"}
{"compound": "O=C(CI)OCC(COC(=O)CI)OC(=O)CI", "assay_system": "A549/ATCC NSCLC", "observed_value": "104% (inactive)"}
{"compound": "Cc1ccc(C(=O)C2C(=O)C3CCC2C3)cc1 (stereo not drawn)", "assay_system": "A549/ATCC NSCLC", "observed_value": "102% (inactive)"}
{"compound": "COc1ccc(-c2cc(-c3ccc(Cl)cc3)nc(SCCCC(=O)NO)n2)cc1", "assay_system": "A549/ATCC NSCLC", "observed_value": "5.47% (active)"}
{"compound": "CC[C@@H]1NC(=O)[C@H]([C@H](O)[C@H](C)C/C=C/c2ccc(CN3C(=O)CCCC3=O)cc2)N(C)C(=O)[C@H](C(C)C)N(C)C(=O)[C@H](CC(C)C)N(C)C(=O)[C@H](CC(C)C)N(C)C(=O)[C@@H](C)NC(=O)[C@H](C)NC(=O)[C@H](CC(C)C)N(C)C(=O)[C@H](C(C)C)NC(=O)[C@H](CC(C)C)N(C)C(=O)CN(C)C1=O", "assay_system": "A549/ATCC NSCLC", "observed_value": "47.1% (inactive)"}
{"compound": "O=C(COc1cccc(/C=C2\\CSc3ccccc3C2=O)c1)c1ccc(Cl)cc1", "assay_system": "A549/ATCC NSCLC", "observed_value": "40.6% (inactive)"}
